test: HPLC/radio-flow metabolite profiling of plasma, urine and fecal extracts after ^3H-MF; type: in vivo, normal healthy male volunteers; details: male, human, plasma, 1.03 mg/Subject; oral solution; extensive first pass metabolism; read-out: absolute bioavailability of unchanged mometasone furoate
readoutName: bioavailability

So, C[C@@H]1C[C@H]2[C@@H]3CCC4=CC(=O)C=C[C@]4(C)[C@@]3(Cl)[C@@H](O)C[C@]2(C)[C@@]1(OC(=O)c1ccco1)C(=O)CCl [mometasone furoate] ? Its bioavailability was < 1%

* * *

assay: Drug metabolism/clinical pharmacology study: absorption and excretion of total radioactivity after ^3H-MF by various routes; type: in vivo, normal healthy male volunteers; conditions: male, human, plasma, inhaled or intranasal, 200 ug; nasal spray 200 mcg, single dose; read-out: bioavailability of mometasone furoate
readoutName: bioavailability

So, C[C@@H]1C[C@H]2[C@@H]3CCC4=CC(=O)C=C[C@]4(C)[C@@]3(Cl)[C@@H](O)C[C@]2(C)[C@@]1(OC(=O)c1ccco1)C(=O)CCl [mometasone furoate] ? Its bioavailability was < 1%
